Below, each entry is listed with its recorded pIC50.
target: Hyaluronidase-1 (Homo sapiens); assay: Inhibition of hyaluronidase
Sequence (Q12794 whole entry): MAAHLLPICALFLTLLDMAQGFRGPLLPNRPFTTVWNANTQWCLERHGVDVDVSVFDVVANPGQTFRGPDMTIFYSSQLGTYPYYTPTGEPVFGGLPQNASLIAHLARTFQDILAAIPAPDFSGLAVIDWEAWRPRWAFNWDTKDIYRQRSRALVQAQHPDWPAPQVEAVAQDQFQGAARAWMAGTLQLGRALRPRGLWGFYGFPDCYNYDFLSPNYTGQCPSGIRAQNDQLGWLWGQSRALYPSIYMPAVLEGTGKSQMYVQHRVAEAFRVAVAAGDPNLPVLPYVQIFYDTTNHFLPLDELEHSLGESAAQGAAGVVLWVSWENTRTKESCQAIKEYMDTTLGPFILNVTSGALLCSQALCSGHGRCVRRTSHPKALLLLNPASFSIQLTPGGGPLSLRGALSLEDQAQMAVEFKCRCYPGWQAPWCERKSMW
# pIC50: negative log10 of molar concentration; output just the value

Recorded results for 2 compounds are shown here.
# query: pIC50 | item "COc1ccc(/C=C\C(=O)O[C@H](C(=O)O)[C@](O)(Cc2ccc(O)c(O)c2)C(=O)O)cc1OC" | system: Hyaluronidase-1 (Homo sapiens)
3.92

# query: pIC50 | item "O=C(/C=C/c1ccc(O)c(O)c1)O[C@H](C(=O)O)[C@](O)(Cc1ccccc1)C(=O)O" | system: Hyaluronidase-1 (Homo sapiens)
3.76

More entries:
# query: pIC50 | item "O=C(/C=C/c1ccc(O)cc1)O[C@H](C(=O)O)[C@](O)(Cc1ccc(O)cc1)C(=O)O" | system: Hyaluronidase-1 (Homo sapiens)
3.59
